# target-under-test: T1, SgrAI S56E (UniProt Q9F6L0 1-339, S56E)
# T1 sequence: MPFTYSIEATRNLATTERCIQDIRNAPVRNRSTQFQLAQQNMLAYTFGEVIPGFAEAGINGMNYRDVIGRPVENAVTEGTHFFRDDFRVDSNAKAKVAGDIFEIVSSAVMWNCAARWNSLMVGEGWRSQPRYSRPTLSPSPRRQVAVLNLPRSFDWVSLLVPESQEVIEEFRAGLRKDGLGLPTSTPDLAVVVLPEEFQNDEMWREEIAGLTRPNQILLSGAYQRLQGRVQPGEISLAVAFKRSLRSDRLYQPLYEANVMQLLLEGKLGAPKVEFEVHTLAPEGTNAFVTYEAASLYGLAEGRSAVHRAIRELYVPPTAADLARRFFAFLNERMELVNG
# experiment-summary: EMSA; 10 mM Ca2+; 20 mM Tris-HOAc pH 8.0 (RT), 50 mM KOAc, 10 mM Ca(OAc)2 (or Mg(OAc)2), 1 mM DTT, 4 C for anisotropy and gel run; 10% glycerol for EMSA and R131A/R134A, none for wild type with 40-mers
# details: protein: recombinant; chain copies: 2; label: 5' 32P (S56E, A57E) or 5' fluorescein on top strand (R131A, R134A)
outcome-measure: pKd
pKd is defined as minus the log10 of a concentration measured in mol/L.

[Q] Given the binder PC DNA (dsDNA) DNA 1: GATGCGTGGGTCTTCACA DNA 2: CCGGTGTGAAGACCCACGCATC , what is its reported pKd?
[A] 9.59
